tested-system: T1, polypeptide GC3pep (human)
T1 construct: also called membrane proximal polypeptide GC3pep
T1 peptide: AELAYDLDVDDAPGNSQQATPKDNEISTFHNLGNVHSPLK
assay-summary: ELISA, GC3pep coated, antibody 0.001 nM
endpoint-label: OD450 nm (OD450 nm)
Record the value in OD450 nm, omitting the unit from your answer.

Recorded results for 2 binders are shown here.
# binder, OD450 nm (OD450 nm)
data = [
    ("F4.26.1 (antibody, human IgG1, kappa, V domains shown, human-murine chimeric antibody) VH: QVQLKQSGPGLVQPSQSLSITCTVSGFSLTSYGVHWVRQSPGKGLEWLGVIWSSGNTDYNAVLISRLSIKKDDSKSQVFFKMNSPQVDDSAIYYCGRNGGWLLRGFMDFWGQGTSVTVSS VL: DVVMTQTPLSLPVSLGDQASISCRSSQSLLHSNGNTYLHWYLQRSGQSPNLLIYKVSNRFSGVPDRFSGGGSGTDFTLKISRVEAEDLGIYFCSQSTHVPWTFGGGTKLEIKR", 0.19),
    ("F3.54.12 (antibody, human IgG1, kappa, V domains shown, human-murine chimeric antibody) VH: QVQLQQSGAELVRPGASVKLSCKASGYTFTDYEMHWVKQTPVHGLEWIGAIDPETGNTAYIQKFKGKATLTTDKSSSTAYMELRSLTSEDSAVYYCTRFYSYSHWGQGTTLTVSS VL: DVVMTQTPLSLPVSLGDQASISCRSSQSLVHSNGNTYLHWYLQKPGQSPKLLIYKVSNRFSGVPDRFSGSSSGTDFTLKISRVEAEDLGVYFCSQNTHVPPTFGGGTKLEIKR", 0.09),
]

// moving on: another record for OD450 nm
For F1.110.24 (antibody, human IgG1, kappa, V domains shown, human-murine chimeric antibody) VH: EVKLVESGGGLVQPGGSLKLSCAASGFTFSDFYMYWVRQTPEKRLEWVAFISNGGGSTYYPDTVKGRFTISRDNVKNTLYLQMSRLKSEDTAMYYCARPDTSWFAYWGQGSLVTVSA VL: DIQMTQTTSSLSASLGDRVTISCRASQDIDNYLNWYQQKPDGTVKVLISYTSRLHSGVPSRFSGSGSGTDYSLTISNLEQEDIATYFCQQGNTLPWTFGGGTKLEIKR , write its OD450 nm. 0.05
